Target: C3a anaphylatoxin chemotactic receptor (Homo sapiens) (UniProt Q16581)
Sequence (Q16581 whole entry): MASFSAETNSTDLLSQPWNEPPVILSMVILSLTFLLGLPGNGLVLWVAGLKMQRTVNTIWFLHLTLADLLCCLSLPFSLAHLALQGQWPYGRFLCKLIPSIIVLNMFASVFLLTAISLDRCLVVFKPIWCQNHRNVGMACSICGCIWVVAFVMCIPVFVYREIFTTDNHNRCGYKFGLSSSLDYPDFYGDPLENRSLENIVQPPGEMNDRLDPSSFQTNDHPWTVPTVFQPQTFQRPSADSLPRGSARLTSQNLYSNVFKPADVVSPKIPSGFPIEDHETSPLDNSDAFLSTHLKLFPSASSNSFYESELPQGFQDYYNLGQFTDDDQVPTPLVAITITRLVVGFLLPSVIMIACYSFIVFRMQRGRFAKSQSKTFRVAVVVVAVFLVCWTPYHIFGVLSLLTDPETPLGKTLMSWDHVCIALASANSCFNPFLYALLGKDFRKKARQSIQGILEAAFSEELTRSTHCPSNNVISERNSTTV
Test: Agonist activity at human C3a receptor expressed in RBL-2H3 cells assessed as beta-hexosaminidase activity in cell supernatant by degranulation assay relative to recombinant human C3a
Assay type: functional, cell-based
Quick reference: Emax of the listed items.
Give just the numeric value; % need not be written.

Ac-WWRNRWRENRLGLAR-OH
62
Ac-WWDRRWRASKLGLAR-OH
14
Ac-WWTRRWRTEKLGLAR-OH
45
Ac-WWSRRWRASKLGLAR-OH
13
Ac-WWERRWRASKLGLAR-OH
22

In one line, give reported Emax of the entry "Ac-WWTRRWRADKLGLAR-OH" .
79

In one line, give reported Emax of the entry "Ac-WWTRRYRASKLGLAR-OH" .
29

// data source = ChEMBL document CHEMBL2062398
